# Target Under Test: Receptor tyrosine-protein kinase erbB-2 (Homo sapiens);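 further: each value is the mean percent inhibition of ERBB2 over replicate measurements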
# Experimental Context: at 0.1 µM
Would you kindly list inhibition for each of these molecules?
Answer format: numeric, % implied, no suffix.

GET /values?readout=inhibition&item= COC(=O)Nc1nc2ccc(Oc3ccc(NC(=O)Nc4cccc(Cl)c4)cc3)cc2[nH]1
-0.47

And then O=C(Nc1n[nH]c2cc(-c3ccc(F)cc3)ccc12)C1CC1 , what is it?
1.75

And then c1ccc(COc2ccc(Nc3ncnc4ccc(-c5ccco5)cc34)cc2)cc1 , what is it?
-0.16

And then Nc1ncc(-c2cccc(S(N)(=O)=O)c2)c2scc(-c3ccc(F)c(Cl)c3)c12 , what is it?
4.06

And then COc1cc(/C=N/Nc2ncnc3[nH]ncc23)ccc1O , what is it?
2.03
